system: A673/TR/shEF; assay: cell viability (LOESS-normalised, relative to median of negative controls) (log2 ratio); higher = more viable cells (less compound effect), active = hit call of the paper (over 3 MAD below the median); settings: 0.926 µM; library screen: screen3; EWS-FLI1 expression: high (no doxycycline); treatment time: 72 h
The campaign covered roughly 3,200 compounds. About 300 (9.4%) showed activity. Many of the other results were omitted from the sample, so actives are more common in it than they were.
Recorded cell viability (log2) by entry
The answer should be a number; do not append a unit.

Example molecules with recorded cell viability (log2):
Request the reported cell viability (log2) associated with COc1nc(N)nc2c1ncn2[C@@H]1O[C@H](CO)[C@@H](O)[C@@H]1O
0.0614

Record: c1cc(CN2CCCNCCNCCCNCC2)ccc1CN1CCCNCCNCCCNCC1
0.086

And the next one, COc1ccc(-c2nc3ccc(C4=NNC(=O)CC4C)cc3[nH]2)cc1 (stereo not given) ?
-0.00296

C[C@@H](Oc1cc(-c2cnn(C3CCNCC3)c2)cnc1N)c1c(Cl)ccc(F)c1Cl ?
0.0194

Next:
Need cell viability (log2) of COc1c(O)cc(C2Oc3c(c(O)cc(O)c3[C@H]3c4c(O)cc(O)cc4O[C@H](c4ccc(O)cc4)[C@@H]3O)C[C@H]2O)cc1O (stereo not given in full) , thanks.
0.0249
